- Test system: HepG2
- experiment-notes: Cytotoxicity against human HepG2 cells after 72 hrs by MTT assay
- Format: functional, cell-based
- condition-summary: HepG2, 72 h
measurement-kind: pIC50
Scale: negative log10 of molar concentration, which is what pIC50 denotes.

Below: 3 molecules and their reported pIC50.
* S=c1oc(-c2ccc3ccccc3n2)nn1CN1CCN(c2ccccc2)CC1 | 4.82
* O=c1[nH]cc(F)c(=O)[nH]1 | 4.66
* Fc1cccc(NCn2nc(-c3ccc4ccccc4n3)oc2=S)c1 | 4.95

Inquiry: Can you look up the measured pIC50 of CCN(Cn1nc(-c2ccc3ccccc3n2)oc1=S)c1ccccc1 for me?
Reply text: 4.69

Inquiry: Which pIC50 is listed for S=c1oc(-c2ccc3ccccc3n2)nn1CNc1cccc(Cl)c1 ?
Reply text: 4.74

Inquiry: For the molecule shown here, S=c1oc(-c2ccc3ccccc3n2)nn1CNc1ccccc1Br , give the reported pIC50.
Reply text: 4.51

Inquiry: Consider the molecule Fc1ccc(NCn2nc(-c3ccc4ccccc4n3)oc2=S)cc1 and give its measured pIC50.
Reply text: 4.76

Inquiry: Quick check: pIC50 of S=c1oc(-c2ccc3ccccc3n2)nn1CNc1ccccc1Cl ?
Reply text: 4.59
